Test system: human SMAD7 mRNA
Experiment notes: Dose-dependent inhibition of human SMAD7 mRNA expression in Hep3B cells (Example 3, Study 1 and 2)
Type: cell-based
Conditions used: 5000.0 nM, electroporation, approximately 16 hours, Study 1
Strand notation (5' to 3'): a small letter for the sugar, then the base; units joined by * are phosphorothioate-linked, units joined directly phosphodiester-linked; [ ] holds rarer units or linkages, { } end groups; capitals alone tell only the bases. e = 2'-O-(2-methoxyethyl) (MOE); [5mC] = 5-methylcytosine; d = 2'-deoxy (DNA)
Reported endpoint: % inhibition of SMAD7 mRNA expression (%)
One number for each entry, in %.

Observe how each entry below is paired with its result.
- Substance: "771786 (antisense eA*eG*e[5mC]*eT*e[5mC]*dA*dA*dA*d[5mC]*dT*dT*dT*dG*dA*dA*eG*e[5mC]*e[5mC]*eT*eT) [compound 771786]"
  U: "%"
  % inhibition of SMAD7 mRNA expression: 53
- Substance: "771795 (antisense e[5mC]*eG*eT*e[5mC]*eT*dG*d[5mC]*dG*dG*d[5mC]*dA*dA*dA*dA*d[5mC]*e[5mC]*e[5mC]*eA*e[5mC]*e[5mC]) [compound 771795]"
  U: "%"
  % inhibition of SMAD7 mRNA expression: 51
- Substance: "771632 (antisense eA*eA*eT*e[5mC]*e[5mC]*dT*dT*d[5mC]*dT*dT*dG*dG*dA*dG*dG*eG*eA*eA*eG*eG) [compound 771632]"
  U: "%"
  % inhibition of SMAD7 mRNA expression: 46
- Substance: "771444 (eA*eG*e[5mC]*e[5mC]*eT*d[5mC]*dT*dT*dG*dA*d[5mC]*dT*dT*d[5mC]*d[5mC]*eG*eA*eG*eG*eA; antisense) [compound 771444]"
  U: "%"
  % inhibition of SMAD7 mRNA expression: 9

Give the measured % inhibition of SMAD7 mRNA expression for 771397 (antisense eG*eA*eG*e[5mC]*eG*dG*d[5mC]*dG*dG*d[5mC]*dG*dG*d[5mC]*d[5mC]*d[5mC]*eG*eA*eG*eG*eG) [compound 771397]
41

###

Experiment notes: Body and organ weights after subcutaneous administration in beagle dogs (Example 8)
Type: in vivo
Conditions used: 30 mg/kg subcutaneous days 1, 3, 5, 8, 15, 22, 29, end of study
Reported endpoint: Body weight

Observe how each entry below is paired with its result.
- Substance: "829994 (GGAGGCAGGGCCGCGA; 3-10-3 cEt gapmer, further chemistry not given here) [compound 829994]"
  Reported result: "7335 g"
- Substance: "830121 (AGAATCAAGCCCTGGC; 3-10-3 cEt gapmer, further chemistry not given here) [compound 830121]"
  Reported result: "6091 g"

Lab note: next substance to report on.
Give the measured Body weight for 798781 (CGTAAGATTCACAGCA; 3-10-3 cEt gapmer, further chemistry not given here) [compound 798781]
6661 g

###

Kindly supply the reported % Inhibition values for the records listed here.
System: human SMAD7 mRNA
Experiment notes: Antisense inhibition of human SMAD7 mRNA expression in Hep3B cells by 3-10-3 cEt gapmers, 10,000 nM, electroporation (Example 2)
Type: cell-based
Conditions used: Hep3B cells, electroporation with 10,000 nM antisense oligonucleotide, approximately 24 hours, primer probe set RTS5062, relative to untreated control cells
Strand notation (5' to 3'): a small letter for the sugar, then the base; units joined by * are phosphorothioate-linked, units joined directly phosphodiester-linked; [ ] holds rarer units or linkages, { } end groups; capitals alone tell only the bases. k = constrained ethyl (cEt); [5mC] = 5-methylcytosine; d = 2'-deoxy (DNA)
One number for each entry, in %.

For each of the substances below, state % Inhibition.
1. 798960 (antisense kA*k[5mC]*k[5mC]*d[5mC]*d[5mC]*d[5mC]*dA*dA*d[5mC]*dA*dA*dT*dT*k[5mC]*kT*kT) [compound 798960]
2. 799114 (antisense k[5mC]*kA*kG*dG*dA*dT*dG*dG*dG*dA*dG*d[5mC]*dA*kG*kG*k[5mC]) [compound 799114]
3. 799224 (k[5mC]*k[5mC]*kA*dA*dT*d[5mC]*dT*dT*dG*dT*dG*dT*dT*kT*kA*kT; antisense) [compound 799224]
4. 799179 (antisense kA*kA*kT*dA*dG*d[5mC]*dT*dT*dA*dT*dG*dT*dT*kA*kA*kA) [compound 799179]
5. 799236 (kT*kA*kA*dA*d[5mC]*dT*d[5mC]*d[5mC]*dT*dT*dT*dA*dG*kA*kA*kA; antisense) [compound 799236]

[39, 35, 3, 0, 45]

For each of the substances below, state % Inhibition.
1. 798974 (antisense k[5mC]*kT*k[5mC]*dT*dT*d[5mC]*d[5mC]*dT*dA*dT*d[5mC]*dA*dG*kG*kG*kT) [compound 798974]
2. 799000 (antisense kG*k[5mC]*k[5mC]*dG*d[5mC]*dA*d[5mC]*dA*d[5mC]*dT*d[5mC]*dA*d[5mC]*kA*k[5mC]*kT) [compound 799000]
3. 798955 (antisense kT*kT*k[5mC]*dA*dT*dA*dA*dG*d[5mC]*dT*dA*dT*dT*kT*k[5mC]*kT) [compound 798955]
4. 799178 (antisense kA*kG*k[5mC]*dT*dT*dA*dT*dG*dT*dT*dA*dA*dA*kG*kT*k[5mC]) [compound 799178]
5. 799134 (antisense kA*k[5mC]*kT*dG*d[5mC]*dT*dA*dA*dG*d[5mC]*dA*dT*dG*kT*k[5mC]*k[5mC]) [compound 799134]

[12, 42, 15, 34, 17]

For each of the substances below, state % Inhibition.
1. 798924 (kA*kG*kT*dT*dT*dG*dA*dA*dG*dT*dG*dT*dG*kG*k[5mC]*k[5mC]; antisense) [compound 798924]
2. 799081 (antisense kT*k[5mC]*kT*d[5mC]*dA*dG*dG*dG*dA*dG*dA*dT*d[5mC]*k[5mC]*kA*kG) [compound 799081]

[43, 28]

Give the measured % Inhibition for 799017 (kT*kG*k[5mC]*dA*dA*dA*d[5mC]*d[5mC]*dT*d[5mC]*dT*d[5mC]*dT*kG*k[5mC]*kT; antisense) [compound 799017]
0
